abundance fitness listing for selected variants.
B1: Zinc finger homeobox protein 3, residues 2147 to 2202; numbered along this chain, Q15911 (parent)
chain: RPRTRITDDQLRVLRQYFDINNSPSEEQIKEMADKSGLPQKVIKHWFRNTLFKERQ

# Variants of: B1
# Assay Notes: abundance fitness (aPCA) (normalised: wild type 0, dead -1); higher = more abundant; growth selection in yeast, the domain comes from the species named
# Run Conditions: Homo sapiens
Kindly provide the number alone.

Some entries whose results are on file:
T7G ... -0.2
P24R ... -0.716
R48F ... -0.023
R48A ... -0.042
N22F ... -0.222

Look up abundance fitness: Y17L
-0.133

# iterate: V42W
-0.119

Item: E27A
0.027

Again, but for S25T
0.012

Now this one: M32P
-1.15

Q10P , same question.
-0.741

// repeat for R55G and report
-0.054

Also, D34Y please.
-0.253

Continue with I6F
-0.052

Ok, now E54C
-0.149
